# Test system: Balb/c splenic B cells
# assay.remarks: B cell activation and proliferation assay (Alamar Blue)
# Format: cell-based
# conditions.used: Mus musculus, read-out: B cell proliferation EC50
pEC50: −log10 of the molar value.
The compounds listed here are annotated with their pEC50.

Some compounds with recorded pEC50:
INSERT INTO assay_data (compound, system_tested, reported_result) VALUES
  ('Cc1ccc(-c2cccc3cc([C@H](C)Nc4ncnc(N)n4)n(-c4ccccc4)c(=O)c23)cn1 [Compound 34]', 'Balb/c splenic B cells', '> 6.00'),
  ('C[C@@H](Nc1ncnc2[nH]cnc12)c1cc2cccc(-c3ccncc3)c2c(=O)n1-c1ccccc1 (stereo in doubt) [Compound 21]', 'Balb/c splenic B cells', '> 7.00'),
  ('C[C@H](Nc1ncnc2[nH]cnc12)c1cc2cccc(-c3cccnc3)c2c(=O)[nH]1 [Compound 49]', 'Balb/c splenic B cells', '> 7.00'),
  ('C[C@H](Nc1nc(N)ncc1C(F)(F)F)c1cc2cccc(-c3cnn(C)c3)c2c(=O)n1C1CC1 [Compound 67]', 'Balb/c splenic B cells', '> 7.00'),
  ('C[C@H](Nc1ncnc2[nH]cnc12)c1cc2cccc(-n3cccn3)c2c(=O)n1-c1ccccc1 [Compound 29]', 'Balb/c splenic B cells', '> 6.00');

Recorded pEC50 for Cc1cnn(-c2cccc3cc([C@H](C)Nc4ncnc5[nH]cnc45)n(-c4ccccc4)c(=O)c23)c1 [Compound 30] , please? > 6.00

Which pEC50 is reported for this compound? C[C@@H](Nc1ncnc2[nH]cnc12)c1cc2cccc(-c3cc[nH]n3)c2c(=O)n1-c1ccccc1 (stereo in doubt) [Compound 18] > 7.00

----------
# system.tested: PI3K γ (Homo sapiens)
# Construct: purchased Sigma
# Sequence (P48736 whole entry): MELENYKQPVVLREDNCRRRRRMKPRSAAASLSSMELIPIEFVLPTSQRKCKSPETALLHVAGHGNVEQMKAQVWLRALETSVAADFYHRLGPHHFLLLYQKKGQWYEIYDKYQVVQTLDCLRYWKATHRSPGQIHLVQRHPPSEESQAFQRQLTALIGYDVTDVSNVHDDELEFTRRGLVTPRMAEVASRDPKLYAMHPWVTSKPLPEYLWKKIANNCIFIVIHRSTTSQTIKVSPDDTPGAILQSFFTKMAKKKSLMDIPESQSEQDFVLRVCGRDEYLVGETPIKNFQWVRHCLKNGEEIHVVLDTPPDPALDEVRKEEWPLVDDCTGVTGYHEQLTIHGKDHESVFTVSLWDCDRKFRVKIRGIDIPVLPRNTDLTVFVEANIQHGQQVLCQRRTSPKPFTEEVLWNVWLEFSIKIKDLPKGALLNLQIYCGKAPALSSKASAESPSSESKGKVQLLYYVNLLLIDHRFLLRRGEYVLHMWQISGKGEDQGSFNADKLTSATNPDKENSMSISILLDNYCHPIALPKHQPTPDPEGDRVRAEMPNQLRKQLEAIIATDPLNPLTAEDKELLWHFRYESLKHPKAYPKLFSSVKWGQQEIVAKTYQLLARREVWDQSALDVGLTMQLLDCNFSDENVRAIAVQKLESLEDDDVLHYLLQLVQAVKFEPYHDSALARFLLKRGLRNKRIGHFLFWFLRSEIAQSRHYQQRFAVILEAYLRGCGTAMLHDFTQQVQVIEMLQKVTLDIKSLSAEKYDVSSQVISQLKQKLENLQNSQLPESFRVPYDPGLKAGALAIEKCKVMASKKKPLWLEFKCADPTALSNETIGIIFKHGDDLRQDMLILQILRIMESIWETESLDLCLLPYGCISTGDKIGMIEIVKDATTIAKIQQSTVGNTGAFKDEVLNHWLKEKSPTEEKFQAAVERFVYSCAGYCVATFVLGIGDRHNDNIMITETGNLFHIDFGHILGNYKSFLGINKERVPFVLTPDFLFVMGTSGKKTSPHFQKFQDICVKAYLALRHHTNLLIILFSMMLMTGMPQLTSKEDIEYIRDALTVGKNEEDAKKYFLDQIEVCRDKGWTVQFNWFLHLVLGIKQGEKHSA
# assay.remarks: In vitro PI3K γ inhibition assay
# Format: biochemical
# Description: Class I PI3-Ks can be either purchased (p110α/p85α, p110β/p85α, p110δ/p85α from Upstate, and p110γ from Sigma) or expressed as previously described (Knight et al., 2004). IC50 values are measured using either a standard TLC assay for lipid kinase activity (described below) or a high-throughput membrane capture assay. […] The TLC plates are then dried, exposed to a phosphorimager screen (Storm, Amersham), and quantitated. […] Data is analyzed and IC50s are generated using GraphPad Prism 5.
Each entry below carries its recorded IC50.

Examples from the recorded data:
INSERT INTO results (compound, reported_result) VALUES
  ('C[C@@H](Nc1ncnc2[nH]cnc12)c1cc2cccc(-c3cc[nH]n3)c2c(=O)n1-c1ccccc1 (stereo in doubt)', '< 100 nM'),
  ('C[C@@H](Nc1ncnc2[nH]cnc12)c1cc2cccc(-c3cn[nH]c3)c2c(=O)n1C1CC1', '< 100 nM'),
  ('C[C@H](Nc1ncnc2[nH]cnc12)c1cc2cccc(N3CCCC3)c2c(=O)n1-c1ccccc1', '< 10000 nM'),
  ('C=Cc1cccc2cc(C(C)Nc3ncnc4[nH]cnc34)n(-c3ccccc3)c(=O)c12 (stereo in doubt)', '< 100 nM'),
  ('C[C@@H](Nc1ncnc2[nH]cnc12)c1cc2cccc(-c3cnn(C)c3)c2c(=O)n1C1CC1 (stereo in doubt)', '< 1000 nM'),
  ('Cc1cn(-c2cccc3cc([C@H](C)Nc4ncnc5[nH]cnc45)n(-c4ccccc4)c(=O)c23)cn1', '< 10000 nM'),
  ('C[C@@H](Nc1ncnc2[nH]cnc12)c1cc2cccc(NC3CCOCC3)c2c(=O)n1-c1ccccc1 (stereo in doubt)', '< 10000 nM'),
  ('Cc1ccc(-c2cccc3cc([C@H](C)Nc4ncnc(N)n4)n(-c4ccccc4)c(=O)c23)cn1', '< 10000 nM'),
  ('C[C@@H](Nc1ncnc2[nH]cnc12)c1cc2cccc(-c3cccnc3)c2c(=O)n1C1CC1 (stereo in doubt)', '< 100 nM'),
  ('Cc1cnn(-c2cccc3cc([C@H](C)Nc4ncnc5[nH]cnc45)n(-c4ccccc4)c(=O)c23)c1', '< 10000 nM');

Which IC50 is reported for this compound? C[C@@H](Nc1ncnc2[nH]cnc12)c1cc2cccc(-c3cccc(F)c3)c2c(=O)n1-c1ccccc1 (stereo in doubt) < 100 nM

If you can, please state the reported IC50 value of CCc1cccc2cc(C(C)Nc3ncnc4[nH]cnc34)n(-c3ccccc3)c(=O)c12 (stereo in doubt) . < 100 nM

Consider the compound C[C@@H](Nc1ncnc2[nH]cnc12)c1cc2cccc(-c3ccncc3)c2c(=O)n1-c1ccccc1 (stereo in doubt) and give its measured IC50. < 100 nM

Query: IC50; subject: COc1ncc(-c2cccc3cc([C@H](C)Nc4ncnc5[nH]cnc45)n(-c4ccccc4)c(=O)c23)cn1 < 10000 nM

----------
Catalogue of IC50 values
# system.tested: PI3K α (Homo sapiens, UniProt P42336)
# Construct: purchased Upstate
# Sequence (P42336 whole entry): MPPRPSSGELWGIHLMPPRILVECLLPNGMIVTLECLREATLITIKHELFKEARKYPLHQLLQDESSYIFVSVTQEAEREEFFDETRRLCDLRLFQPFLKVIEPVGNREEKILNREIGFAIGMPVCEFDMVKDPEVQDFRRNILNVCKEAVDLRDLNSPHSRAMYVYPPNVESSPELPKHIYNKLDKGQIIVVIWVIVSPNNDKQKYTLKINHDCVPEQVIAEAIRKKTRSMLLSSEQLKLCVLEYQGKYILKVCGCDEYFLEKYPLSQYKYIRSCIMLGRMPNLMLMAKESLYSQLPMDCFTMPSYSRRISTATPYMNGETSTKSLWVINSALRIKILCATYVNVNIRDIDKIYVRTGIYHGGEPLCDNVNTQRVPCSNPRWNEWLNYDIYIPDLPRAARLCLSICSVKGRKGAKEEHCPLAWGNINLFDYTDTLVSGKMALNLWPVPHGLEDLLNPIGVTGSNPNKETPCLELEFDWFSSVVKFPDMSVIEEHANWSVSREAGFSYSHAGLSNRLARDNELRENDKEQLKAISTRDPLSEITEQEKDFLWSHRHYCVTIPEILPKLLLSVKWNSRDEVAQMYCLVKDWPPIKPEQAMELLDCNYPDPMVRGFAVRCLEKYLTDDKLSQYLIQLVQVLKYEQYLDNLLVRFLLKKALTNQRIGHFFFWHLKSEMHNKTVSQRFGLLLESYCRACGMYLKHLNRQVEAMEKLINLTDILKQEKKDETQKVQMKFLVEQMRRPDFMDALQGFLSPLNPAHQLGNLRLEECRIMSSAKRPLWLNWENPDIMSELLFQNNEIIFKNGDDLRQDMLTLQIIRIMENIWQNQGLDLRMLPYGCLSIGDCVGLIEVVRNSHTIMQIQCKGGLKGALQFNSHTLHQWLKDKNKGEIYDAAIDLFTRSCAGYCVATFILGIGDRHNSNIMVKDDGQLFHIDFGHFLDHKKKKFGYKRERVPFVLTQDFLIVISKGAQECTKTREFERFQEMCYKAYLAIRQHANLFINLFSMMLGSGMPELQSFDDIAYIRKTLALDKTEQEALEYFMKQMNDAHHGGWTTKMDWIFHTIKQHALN
# Sequence (P27986 whole entry partner): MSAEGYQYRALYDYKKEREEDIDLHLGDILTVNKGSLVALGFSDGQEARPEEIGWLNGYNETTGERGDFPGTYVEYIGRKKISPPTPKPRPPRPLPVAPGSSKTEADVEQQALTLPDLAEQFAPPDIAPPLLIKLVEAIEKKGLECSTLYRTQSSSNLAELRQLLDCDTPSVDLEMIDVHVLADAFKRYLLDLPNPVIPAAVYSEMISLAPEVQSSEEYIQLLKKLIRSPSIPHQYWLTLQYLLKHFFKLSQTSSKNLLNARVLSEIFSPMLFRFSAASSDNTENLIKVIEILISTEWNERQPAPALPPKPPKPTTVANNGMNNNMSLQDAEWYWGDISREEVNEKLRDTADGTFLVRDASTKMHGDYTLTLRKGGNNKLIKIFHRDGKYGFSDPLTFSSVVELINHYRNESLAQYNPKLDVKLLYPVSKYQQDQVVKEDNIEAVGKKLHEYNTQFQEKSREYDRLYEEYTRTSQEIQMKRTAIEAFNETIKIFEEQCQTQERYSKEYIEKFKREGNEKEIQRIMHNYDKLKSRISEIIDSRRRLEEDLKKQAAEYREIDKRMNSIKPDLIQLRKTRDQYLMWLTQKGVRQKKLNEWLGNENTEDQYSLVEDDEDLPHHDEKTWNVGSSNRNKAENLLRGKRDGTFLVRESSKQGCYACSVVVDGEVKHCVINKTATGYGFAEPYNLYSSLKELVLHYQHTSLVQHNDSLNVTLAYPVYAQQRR
# assay.remarks: In vitro PI3K α inhibition assay
# Type: biochemical

INSERT INTO assay_data (molecule, reported_result) VALUES
  ('C[C@@H](Nc1ncnc2[nH]cnc12)c1cc2cccc(NC3CCOCC3)c2c(=O)n1-c1ccccc1 (stereo in doubt) [Compound 40]', '> 10000 nM'),
  ('C[C@@H](Nc1ncnc2[nH]cnc12)c1cc2cccc(-c3cccc(F)c3)c2c(=O)n1-c1ccccc1 (stereo in doubt) [Compound 25]', '< 10000 nM');

Here's the next entry for you.
Given the entry C[C@@H](Nc1ncnc2[nH]cnc12)c1cc2cccc(-c3cnn(C)c3)c2c(=O)n1C1CC1 (stereo in doubt) [Compound 20] , report its measured IC50. < 10000 nM

----------
# system.tested: PI3K δ (Homo sapiens)
# Construct: purchased Upstate
# Sequence (O00329 whole entry): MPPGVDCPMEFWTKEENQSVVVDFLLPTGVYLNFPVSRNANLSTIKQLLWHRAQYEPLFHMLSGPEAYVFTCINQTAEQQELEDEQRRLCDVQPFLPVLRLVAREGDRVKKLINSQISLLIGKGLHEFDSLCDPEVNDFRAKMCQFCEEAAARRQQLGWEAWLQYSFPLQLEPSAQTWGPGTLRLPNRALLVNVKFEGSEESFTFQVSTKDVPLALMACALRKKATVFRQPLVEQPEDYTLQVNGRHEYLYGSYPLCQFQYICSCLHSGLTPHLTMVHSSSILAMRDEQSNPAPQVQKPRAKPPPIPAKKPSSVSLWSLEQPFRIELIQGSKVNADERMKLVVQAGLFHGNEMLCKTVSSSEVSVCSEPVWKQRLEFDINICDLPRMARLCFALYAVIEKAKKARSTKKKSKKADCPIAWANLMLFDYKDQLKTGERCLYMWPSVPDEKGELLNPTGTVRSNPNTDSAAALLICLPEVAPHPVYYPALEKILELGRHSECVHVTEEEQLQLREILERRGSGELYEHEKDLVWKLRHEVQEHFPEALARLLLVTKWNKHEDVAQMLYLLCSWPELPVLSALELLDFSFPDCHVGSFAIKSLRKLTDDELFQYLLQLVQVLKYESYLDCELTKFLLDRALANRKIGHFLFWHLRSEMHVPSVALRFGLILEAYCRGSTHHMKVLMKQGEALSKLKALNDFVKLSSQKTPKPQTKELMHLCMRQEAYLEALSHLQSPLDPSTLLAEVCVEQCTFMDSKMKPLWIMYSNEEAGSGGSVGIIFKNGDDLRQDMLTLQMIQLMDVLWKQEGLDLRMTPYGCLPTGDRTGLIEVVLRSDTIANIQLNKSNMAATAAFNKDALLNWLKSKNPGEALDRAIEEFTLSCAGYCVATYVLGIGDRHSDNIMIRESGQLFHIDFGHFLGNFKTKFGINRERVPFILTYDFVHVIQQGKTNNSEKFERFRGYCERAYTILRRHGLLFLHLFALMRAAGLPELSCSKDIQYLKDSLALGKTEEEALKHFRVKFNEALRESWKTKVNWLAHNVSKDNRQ
# Sequence (P27986 whole entry partner): as the sequence (P27986 whole entry partner) above
# assay.remarks: In vitro PI3K δ inhibition assay
# Type: biochemical
reported.endpoint: IC50

INSERT INTO results (molecule, reported_endpoint, reported_result) VALUES
  ('C=Cc1cccc2cc(C(C)Nc3ncnc4[nH]cnc34)n(-c3ccccc3)c(=O)c12 (stereo in doubt)', 'IC50', '< 100 nM'),
  ('C[C@H](Nc1ncnn2cncc12)c1cc2cccc(-c3cnn(C)c3)c2c(=O)n1-c1ccccc1', 'IC50', '< 10000 nM');

// IC50 lookup, key: C[C@@H](Nc1ncnc2[nH]cnc12)c1cc2cccc(-c3cccnc3)c2c(=O)n1C1CC1 (stereo in doubt) < 100 nM

Would you mind telling me what IC50 value was observed for CCc1cccc2cc(C(C)Nc3ncnc4[nH]cnc34)n(-c3ccccc3)c(=O)c12 (stereo in doubt) ? < 100 nM

So what's the measured IC50 for this one? C[C@@H](Nc1ncnc2[nH]cnc12)c1cc2cccc(-c3cc[nH]n3)c2c(=O)n1-c1ccccc1 (stereo in doubt) < 100 nM

Requested field: IC50. Item: C[C@@H](Nc1ncnc2[nH]cnc12)c1cc2cccc(-c3ccncc3)c2c(=O)n1-c1ccccc1 (stereo in doubt) < 100 nM

// lookup IC50 for CC(Nc1ncnc2[nH]cnc12)c1cc2cccc(C#N)c2c(=O)n1-c1ccccc1 (stereo in doubt) < 100 nM

Entry C[C@@H](Nc1ncnc2[nH]cnc12)c1cc2cccc(-c3cnn(C)c3)c2c(=O)n1-c1ccccc1 (stereo in doubt) : reported IC50 = ? < 100 nM

If you can, please state the reported IC50 value of C[C@@H](Nc1ncnc2[nH]cnc12)c1cc2cccc(-c3cnn(C)c3)c2c(=O)n1C1CC1 (stereo in doubt) . < 100 nM

What measured IC50 goes with C[C@@H](Nc1ncnc2[nH]cnc12)c1cc2cccc(N(C)C)c2c(=O)n1-c1ccccc1 (stereo in doubt) ? < 10000 nM

Query (molecule): C[C@H](Nc1ncnc2[nH]cnc12)c1cc2cccc(N3CCCC3)c2c(=O)n1-c1ccccc1 ; field requested: IC50 < 10000 nM

For the molecule shown here, C[C@@H](Nc1ncnc2[nH]cnc12)c1cc2cccc(-c3cn[nH]c3)c2c(=O)n1C1CC1 , give the reported IC50. < 100 nM

What value of IC50 has been recorded for this entry: C[C@@H](Nc1ncnc2[nH]cnc12)c1cc2cccc(-c3cccnc3)c2c(=O)n1-c1ccccc1 (stereo in doubt) < 100 nM

Query: IC50; subject: C[C@H](Nc1ncnc2[nH]cnc12)c1cc2cccc(-c3cnn(C)c3)c2c(=O)[nH]1 < 10000 nM

Return reported IC50; argument: C[C@@H](Nc1ncnc2[nH]cnc12)c1cc2cccc(N3CCOCC3)c2c(=O)n1-c1ccccc1 (stereo in doubt) < 1000 nM

IC50 lookup needed for C[C@@H](Nc1ncnc2[nH]cnc12)c1cc2cccc(NC3CCOCC3)c2c(=O)n1-c1ccccc1 (stereo in doubt) , thanks. < 1000 nM

----------
# system.tested: PI3K β (Homo sapiens)
# Construct: purchased Upstate
# Sequence (P42338 whole entry): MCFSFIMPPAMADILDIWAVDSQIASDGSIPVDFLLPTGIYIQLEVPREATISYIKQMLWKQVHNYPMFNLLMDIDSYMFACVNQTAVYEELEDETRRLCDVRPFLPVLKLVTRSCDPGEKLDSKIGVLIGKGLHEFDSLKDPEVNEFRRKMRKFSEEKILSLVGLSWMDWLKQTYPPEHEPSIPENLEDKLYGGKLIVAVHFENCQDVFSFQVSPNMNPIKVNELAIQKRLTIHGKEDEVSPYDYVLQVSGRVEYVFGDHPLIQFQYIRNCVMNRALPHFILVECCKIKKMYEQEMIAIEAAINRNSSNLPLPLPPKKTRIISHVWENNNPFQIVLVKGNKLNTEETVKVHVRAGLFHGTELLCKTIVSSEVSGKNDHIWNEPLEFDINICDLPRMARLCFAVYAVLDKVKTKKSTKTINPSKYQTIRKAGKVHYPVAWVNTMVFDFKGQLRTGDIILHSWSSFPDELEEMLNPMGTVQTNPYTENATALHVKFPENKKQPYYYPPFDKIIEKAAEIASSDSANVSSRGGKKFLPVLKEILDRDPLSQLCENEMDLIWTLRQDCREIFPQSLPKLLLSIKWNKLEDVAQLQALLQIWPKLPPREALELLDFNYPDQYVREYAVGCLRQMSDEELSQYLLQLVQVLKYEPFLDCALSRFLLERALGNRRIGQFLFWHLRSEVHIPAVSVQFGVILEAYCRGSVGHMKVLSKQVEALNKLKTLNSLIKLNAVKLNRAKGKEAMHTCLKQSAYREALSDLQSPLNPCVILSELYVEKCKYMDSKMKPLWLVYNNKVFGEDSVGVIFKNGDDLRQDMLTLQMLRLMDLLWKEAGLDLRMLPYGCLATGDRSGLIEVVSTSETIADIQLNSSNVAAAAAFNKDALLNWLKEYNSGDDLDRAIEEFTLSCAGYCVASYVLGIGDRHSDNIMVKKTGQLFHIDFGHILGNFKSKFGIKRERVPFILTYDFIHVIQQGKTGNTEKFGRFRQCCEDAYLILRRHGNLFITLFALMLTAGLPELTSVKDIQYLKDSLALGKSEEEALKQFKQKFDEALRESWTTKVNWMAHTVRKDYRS
# Sequence (P27986 whole entry partner): as the sequence (P27986 whole entry partner) above
# assay.remarks: In vitro PI3K β inhibition assay
# Assay type: biochemical
A collection of compounds and their measured IC50

INSERT INTO results (compound, system_tested, reported_endpoint, reported_result) VALUES
  ('C[C@@H](Nc1ncnc2[nH]cnc12)c1cc2cccc(-c3ccncc3)c2c(=O)n1-c1ccccc1 (stereo in doubt)', 'PI3K β (Homo sapiens)', 'IC50', '< 10000 nM');

I have this compound here, C[C@@H](Nc1ncnc2[nH]cnc12)c1cc2cccc(N(C)C)c2c(=O)n1-c1ccccc1 (stereo in doubt) , and I need its recorded IC50. > 10000 nM

// IC50 lookup, key: C[C@@H](Nc1ncnc2[nH]cnc12)c1cc2cccc(-c3cnn(C)c3)c2c(=O)n1-c1ccccc1 (stereo in doubt) > 10000 nM

Reported IC50 for C[C@H](Nc1nc(N)nc2[nH]cnc12)c1cc2cccc(-c3cccnc3)c2c(=O)n1-c1ccccc1 : what is it? < 10000 nM

Using the record for C[C@@H](Nc1ncnc2[nH]cnc12)c1cc2cccc(-c3cnn(C)c3)c2c(=O)n1C1CC1 (stereo in doubt) , report its IC50. < 10000 nM

What measured IC50 goes with C[C@H](Nc1ncnc2[nH]cc(C#N)c12)c1cc2cccc(-c3cnn(C)c3)c2c(=O)n1-c1ccccc1 ? < 10000 nM
